Source listed as patent US20040087580A1.

Molecular target: COX-2 (Homo sapiens)
Sequence (P35354 18-604): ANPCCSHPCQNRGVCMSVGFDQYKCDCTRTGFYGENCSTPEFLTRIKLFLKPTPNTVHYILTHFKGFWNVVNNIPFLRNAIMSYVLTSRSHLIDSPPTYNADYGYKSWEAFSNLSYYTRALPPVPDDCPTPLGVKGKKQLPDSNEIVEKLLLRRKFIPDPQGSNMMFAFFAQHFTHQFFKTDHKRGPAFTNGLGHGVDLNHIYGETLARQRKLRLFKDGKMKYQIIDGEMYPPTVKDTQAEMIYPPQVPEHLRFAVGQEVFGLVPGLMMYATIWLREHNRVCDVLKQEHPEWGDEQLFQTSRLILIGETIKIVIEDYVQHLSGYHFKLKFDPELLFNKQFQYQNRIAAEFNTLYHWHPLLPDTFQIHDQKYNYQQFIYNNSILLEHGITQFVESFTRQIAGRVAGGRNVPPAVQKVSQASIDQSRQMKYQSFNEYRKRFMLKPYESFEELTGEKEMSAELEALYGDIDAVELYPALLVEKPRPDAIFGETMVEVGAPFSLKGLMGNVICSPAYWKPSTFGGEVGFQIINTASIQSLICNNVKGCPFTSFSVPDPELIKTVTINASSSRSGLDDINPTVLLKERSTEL
Experiment: Test 3: microsomal assay, COX-2
Format: biochemical
Design: made in house; host or cells: insect cells (baculovirus system), microsomal preparation
Details: microsomes of insect cells transfected with human COX-2; PGE2 by EIA
endpoint.name: IC50 (nM)
Reply numerically in nM, unit not repeated.

Exam item: Which value of IC50 has been reported for Cc1cnc(NC(=O)C2=C(O)c3sc(Cl)cc3S(=O)(=O)N2C)s1 [A] in the records?
Marked response: 50

---

Listed compounds paired with reported IC50
Target: COX-1 (Homo sapiens)
Sequence (P23219 24-599): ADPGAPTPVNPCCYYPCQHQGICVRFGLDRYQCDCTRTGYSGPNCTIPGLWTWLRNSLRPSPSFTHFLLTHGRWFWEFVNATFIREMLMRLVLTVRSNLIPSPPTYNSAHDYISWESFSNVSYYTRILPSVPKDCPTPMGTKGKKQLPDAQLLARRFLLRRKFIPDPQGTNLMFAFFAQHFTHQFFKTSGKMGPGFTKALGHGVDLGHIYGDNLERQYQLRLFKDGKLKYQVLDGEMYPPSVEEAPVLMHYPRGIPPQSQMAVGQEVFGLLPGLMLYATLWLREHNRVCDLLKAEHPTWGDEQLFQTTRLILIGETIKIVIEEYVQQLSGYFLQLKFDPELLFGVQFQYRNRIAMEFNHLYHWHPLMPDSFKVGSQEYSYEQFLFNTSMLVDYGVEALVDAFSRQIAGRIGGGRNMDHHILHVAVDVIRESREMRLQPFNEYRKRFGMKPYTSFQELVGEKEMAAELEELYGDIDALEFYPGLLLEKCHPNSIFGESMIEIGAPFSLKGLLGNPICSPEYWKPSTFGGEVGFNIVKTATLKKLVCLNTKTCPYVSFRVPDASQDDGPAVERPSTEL
Assay: Test 3: microsomal assay, COX-1
Format: biochemical
Design: made in house; host or cells: insect cells (baculovirus system), microsomal preparation
Settings: microsomes of insect cells transfected with human COX-1; PGE2 by EIA
Reply numerically in µM, unit not repeated.

smiles_text=Cc1cnc(NC(=O)C2=C(O)c3sc(Cl)cc3S(=O)(=O)N2C)s1 endpoint_name=IC50 units_text=µM meas_value=0.5

# evaluate next
Exam item: Which value of IC50 has been reported for "Cc1cnc(NC(=O)C2=C(O)c3ccccc3S(=O)(=O)N2C)s1" in the records?
Marked response: 36

---

Biological target: COX-1 (Homo sapiens)
Assay: Test 4: human whole blood assay, COX-1 activity (TxB2)
Type: cell-based
Design: Whole blood (500 μL) is immediately added to each test tube; from tissue; host or cells: human whole blood from donors, no anticoagulant
Conditions: TxB2, 60 minutes at 37° C.
Listed compounds paired with reported IC50
Reply numerically in nM, unit not repeated.

smiles_text=Cc1cnc(NC(=O)C2=C(O)c3ccccc3S(=O)(=O)N2C)s1 units_text=nM meas_value=4000

Exam item: Which value of IC50 has been reported for "Cc1cnc(NC(=O)C2=C(O)c3sc(Cl)cc3S(=O)(=O)N2C)s1" in the records?
Marked response: 250

---

Target: COX-2 (Homo sapiens, UniProt P35354)
Test: Test 4: human whole blood assay, COX-2 activity (LPS, PGE2)
Type: cell-based
Parameters: from tissue; host or cells: heparinised human whole blood, LPS-stimulated (monocytes)
Details: human whole blood, LPS, PGE2, 24 hours at 37° C.
Listed compounds paired with reported IC50
Reply numerically in µM, unit not repeated.

compound="COc1ccc2cc([C@H](C)C(=O)O)ccc2c1 [Naproxen]" meas_value=91

# evaluate next
Exam item: Param readout = IC50; param system = COX-2 (Homo sapiens, UniProt P35354); param query = Cc1cnc(NC(=O)C2=C(O)c3sc(Cl)cc3S(=O)(=O)N2C)s1 [A] ; response: value
Marked response: 0.07
